# reported inhibition; entries follow
- target desc: Tyrosine-protein kinase JAK3 (Homo sapiens) (UniProt P52333)
- Sequence (P52333 whole entry): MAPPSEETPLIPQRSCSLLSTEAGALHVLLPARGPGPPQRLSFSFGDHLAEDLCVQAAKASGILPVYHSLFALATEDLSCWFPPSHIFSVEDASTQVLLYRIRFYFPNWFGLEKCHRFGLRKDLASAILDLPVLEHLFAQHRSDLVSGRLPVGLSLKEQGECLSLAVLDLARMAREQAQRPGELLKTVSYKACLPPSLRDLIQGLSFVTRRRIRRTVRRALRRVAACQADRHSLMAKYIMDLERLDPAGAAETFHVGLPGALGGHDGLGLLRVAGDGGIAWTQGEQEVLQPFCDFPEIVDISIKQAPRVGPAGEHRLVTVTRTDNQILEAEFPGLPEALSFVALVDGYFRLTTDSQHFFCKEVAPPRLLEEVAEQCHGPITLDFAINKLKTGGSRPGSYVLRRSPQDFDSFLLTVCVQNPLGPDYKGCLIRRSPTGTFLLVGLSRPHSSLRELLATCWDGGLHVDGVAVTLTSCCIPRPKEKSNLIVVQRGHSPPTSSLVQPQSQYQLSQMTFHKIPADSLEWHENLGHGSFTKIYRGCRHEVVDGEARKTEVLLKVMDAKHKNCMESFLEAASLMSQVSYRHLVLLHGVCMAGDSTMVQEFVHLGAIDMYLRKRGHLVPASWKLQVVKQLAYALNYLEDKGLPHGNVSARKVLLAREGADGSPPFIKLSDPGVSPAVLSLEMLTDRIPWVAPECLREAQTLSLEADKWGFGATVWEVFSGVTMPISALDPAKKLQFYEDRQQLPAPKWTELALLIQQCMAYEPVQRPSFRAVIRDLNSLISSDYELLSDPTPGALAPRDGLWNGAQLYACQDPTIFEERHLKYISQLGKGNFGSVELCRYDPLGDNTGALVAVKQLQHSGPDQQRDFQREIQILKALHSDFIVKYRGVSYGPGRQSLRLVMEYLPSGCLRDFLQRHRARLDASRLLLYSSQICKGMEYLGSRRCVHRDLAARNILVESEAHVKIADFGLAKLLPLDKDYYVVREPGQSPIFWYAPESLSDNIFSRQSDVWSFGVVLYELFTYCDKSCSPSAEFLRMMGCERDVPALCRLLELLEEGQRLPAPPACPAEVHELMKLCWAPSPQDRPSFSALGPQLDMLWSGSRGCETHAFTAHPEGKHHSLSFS
- assay conditions: at 1 µM
- Description: GSK_PKIS: JAK3 mean inhibition at 1 uM [Nanosyn]
Response body: numeric value in %, unit text excluded.

Answered cases to consult:
smi	target desc	property label	measurement unit	test result
COC(=O)Nc1nc2cc(Oc3ccc(NC(=O)Nc4cccc(C(=O)O)c4)cc3)ccc2[nH]1	Tyrosine-protein kinase JAK3 (Homo sapiens) (UniProt P52333)	inhibition	%	0.66
CCc1cccc(NC(=O)Nc2ccc(Oc3ccc4nc(NC(=O)OC)[nH]c4c3)cc2)c1	Tyrosine-protein kinase JAK3 (Homo sapiens) (UniProt P52333)	inhibition	%	1.13
CS(=O)(=O)CCNCc1ccc(-c2ccc3ncnc(Nc4ccc(OCc5ccccc5)c(Cl)c4)c3c2)o1	Tyrosine-protein kinase JAK3 (Homo sapiens) (UniProt P52333)	inhibition	%	2.44

Input: Consider the compound shown here: Fc1cccc(COc2ccc(Nc3ncnc4cc(-c5ccc[nH]5)sc34)cc2Cl)c1 What is its recorded inhibition?
Output: -1.5

Input: How about this compound: COc1cc2c(cc1Nc1nc(N3CCc4ccccc43)c3cc[nH]c3n1)N(C(=O)CN(C)C)CC2
Output: 0.18

Input: How about this compound: COc1cccc(-n2ncc3c(N/N=C/c4cccc(F)c4)ncnc32)c1
Output: 0.79

Input: How about this compound: O=C1NC(=O)C(c2ccc(Cl)cc2)=C1Nc1ccc(Cl)c(C(=O)O)c1
Output: 2.64

Input: How about this compound: COc1cc(C)c(NC(=O)CN(C)C)cc1Nc1nc(Nc2cccc(F)c2C(N)=O)c2cc[nH]c2n1
Output: -1.63

Input: How about this compound: CCn1c(-c2nonc2N)nc2c(C#CC(C)(C)O)nc(OC[C@@H](N)c3ccccc3)cc21
Output: 4.39
